Tested on: SK-BR-3
protocol.details: Antiproliferative activity against human SKBR3 cells incubated for 5 days by SRB assay
Type: functional, cell-based
details: SK-BR-3, 120 h
Numbered stars: 1 amine (or outer) side, 2 acyl side, 3 side chain; on linkers, the order of the positions; unused ones are H or OH. Square brackets hold non-standard residues; d marks the D form. Peptide text beside a SMILES is read from it. * marks the point of attachment. X3 = CCC(=O)C[C@@H](O)C[C@@H](C)C[C@H](N[*:1])C(=O)[*:2]; X8 = CCC(=O)C[C@H](O)C[C@@H](C)C[C@H](N[*:1])C(=O)[*:2]; X4 = CCCCCCCC[C@@H](C)C[C@H](N[*:1])C(=O)[*:2]; X1 = CCCCCC[C@@H](C)C[C@H](N[*:1])C(=O)[*:2]; NH((S)CH(Me)CH2NHC2H4OH) = C[C@@H](CNCCO)N*; hSer = N[C@@H](CCO)C(=O)O; Aib = CC(C)(N)C(=O)O; Butyryl = CCCC(=O)*; βAla = NCCC(=O)O
IC50: recorded values
metric: IC50 (nM)

>>> result_number("CCCCCC[C@@H](C)C[C@H](NC(=O)C(C)(C)NC(=O)C(C)(C)NC(=O)[C@H](C[C@H](C)C[C@H](O)CC(=O)CC)NC(=O)[C@@H]1CCCN1C(=O)CCC)C(=O)N[C@@H](CC(C)C)C(=O)NC(C)(C)C(=O)N[C@@H](CC(C)C)C(=O)NCCC(=O)N[C@@H](C)CNCCO (Butyryl-P[X3][Aib][Aib][X1]L[Aib]L[βAla]-{NH((S)CH(Me)CH2NHC2H4OH)})")
35
>>> result_number("CCCCCCCC[C@@H](C)C[C@H](NC(=O)[C@@H]1CCCN1C(=O)CCC)C(=O)NC(C)(C)C(=O)NC(C)(C)C(=O)N[C@@H](C[C@H](C)CCCCCC)C(=O)N[C@@H](CC(C)C)C(=O)NC(C)(C)C(=O)N[C@@H](CC(C)C)C(=O)NCCC(=O)N[C@@H](C)CNCCO (Butyryl-P[X4][Aib][Aib][X1]L[Aib]L[βAla]-{NH((S)CH(Me)CH2NHC2H4OH)})")
236
>>> result_number("CCCCCC[C@@H](C)C[C@H](NC(=O)C(C)(C)NC(=O)C(C)(C)NC(=O)[C@H](C[C@H](C)C[C@@H](O)CC(=O)CC)NC(=O)[C@@H]1CCCN1C(=O)CCC)C(=O)N[C@@H](CC(C)C)C(=O)NC(C)(C)C(=O)N[C@@H](CC(C)C)C(=O)NCCC(=O)N[C@@H](C)CNCCO (Butyryl-P[X8][Aib][Aib][X1]L[Aib]L[βAla]-{NH((S)CH(Me)CH2NHC2H4OH)})")
32
>>> result_number("CCCCCC[C@@H](C)C[C@H](NC(=O)C(C)(C)NC(=O)C(C)(C)NC(=O)[C@H](CCO)NC(=O)[C@@H]1CCCN1C(=O)CCC)C(=O)N[C@@H](CC(C)C)C(=O)NC(C)(C)C(=O)N[C@@H](CC(C)C)C(=O)NCCC(=O)N[C@@H](C)CNCCO (Butyryl-P[hSer][Aib][Aib][X1]L[Aib]L[βAla]-{NH((S)CH(Me)CH2NHC2H4OH)})")
108
